tested on: P-gp and BCRP; assay: in vitro; settings: human, Caco-2, pH 7.4, BL-to-AP Recovery
metric-name: recovery at 10 μM (%)
Record the value in %, omitting the unit from your answer.

[Q] Reported recovery at 10 μM, compound `Nc1nc(Cl)nc2c1ncn2[C@H]1C[C@H](O)[C@@H](CO)O1` : ____
[A] 92.9

* * *

system: P-gp and BCRP; experiment: in vitro; details: human, Caco-2, pH 7.4, AP-to-BL Recovery
metric-name: recovery at 10 μM
Please give the number followed by its unit.

[Q] Reported recovery at 10 μM, molecule `Nc1nc(Cl)nc2c1ncn2[C@H]1C[C@H](O)[C@@H](CO)O1` : ____
[A] 95.3%

* * *

Biological target: CYP2B6 (Homo sapiens)
Sequence (P20813 whole entry): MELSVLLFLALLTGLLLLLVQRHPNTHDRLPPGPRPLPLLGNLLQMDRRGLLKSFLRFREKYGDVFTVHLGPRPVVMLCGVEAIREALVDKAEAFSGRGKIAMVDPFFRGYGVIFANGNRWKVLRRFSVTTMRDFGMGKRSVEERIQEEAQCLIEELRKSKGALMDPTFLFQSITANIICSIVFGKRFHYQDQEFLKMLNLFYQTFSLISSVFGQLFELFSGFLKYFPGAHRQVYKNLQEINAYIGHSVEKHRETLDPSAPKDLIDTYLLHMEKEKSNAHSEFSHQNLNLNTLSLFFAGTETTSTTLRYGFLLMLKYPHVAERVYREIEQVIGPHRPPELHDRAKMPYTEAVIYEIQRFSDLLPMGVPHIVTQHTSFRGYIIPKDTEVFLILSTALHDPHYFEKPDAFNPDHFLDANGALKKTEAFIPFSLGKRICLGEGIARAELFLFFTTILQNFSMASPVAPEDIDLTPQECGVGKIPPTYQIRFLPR
Experiment: Time-dependent inhibition (TDI) of CYP in HLM, 30 min pre-incubation ±NADPH
Conditions: microsomes, pH 7.4, % of Control Enzyme Activity, −NADPH 30 min, 30.0 μM
Protocol: CYP TDI was evaluated by a 30-minute pre-incubation of the TA with HLM in the presence and absence of NADPH followed by the CYP enzyme activity assay. […] The total organic solvent content in the final incubation was less than 1% (DMSO ≤0.1%, other organic solvent ≤1%). […] The formation of individual CYP probe metabolites was determined by LC-MS/MS. The enzyme activity was expressed as the peak area ratio of CYP probe metabolite to IS, measured by LC-MS/MS.
metric-name: activity at 30 min, 30 µM (%)
Record the value in %, omitting the unit from your answer.

[Q] Reported activity at 30 min, 30 µM, compound `S=P(N1CC1)(N1CC1)N1CC1` : ____
[A] 54.8

* * *

Tested on: P-gp and BCRP
Assay: in vitro
Conditions: human, Caco-2, pH 7.4, BL-to-AP Papp of TUDCA
Procedure: The P-gp and BCRP substrate assessment was conducted in C2BBe1 cell monolayers. […] LY was co-dosed with each dosing solution at a nominal concentration of 200 μM. The cell culture medium was aspirated, and the cell monolayers were rinsed once with HBSSg_7.4. […] For receiver samples, aliquots (300 μL) were taken at pre-selected time points. […] For donor samples, aliquots (50 μL) were taken at pre-selected time points without replacement.
metric-name: Papp B→A at 81 µM (×10⁻⁶ cm/s)
Record the value in ×10⁻⁶ cm/s, omitting the unit from your answer.

[Q] Reported Papp B→A at 81 µM, compound `C[C@H](CCC(=O)NCCS(=O)(=O)O)[C@H]1CC[C@H]2[C@@H]3[C@@H](O)C[C@@H]4C[C@H](O)CC[C@]4(C)[C@H]3CC[C@]12C` : ____
[A] 2.66

* * *

experiment: in vivo; settings: male, CD (Sprague-Dawley) IGS, rat, po, 840 mg/kg, Cmax plasma level
metric-name: Cmax (ng/mL)
Record the value in ng/mL, omitting the unit from your answer.

[
  {
    "compound": "C[C@H](CCC(=O)NCCS(=O)(=O)O)[C@H]1CC[C@H]2[C@@H]3[C@@H](O)C[C@@H]4C[C@H](O)CC[C@]4(C)[C@H]3CC[C@]12C [TUDCA, tauroursodeoxycholic acid]",
    "unit-abbreviation": "ng/mL",
    "Cmax": 298
  }
]

[Q] Reported Cmax, compound O=C(O)CCCc1ccccc1 [PB, sodium phenylbutyrate] : ____
[A] 10200

Origin of measurements: patent US20230277630A1
